Ref: ChEMBL document CHEMBL4052615

# target_under_test: Metabotropic glutamate receptor 5 (Homo sapiens)
# Sequence (P41594 21-1212 limits assumed): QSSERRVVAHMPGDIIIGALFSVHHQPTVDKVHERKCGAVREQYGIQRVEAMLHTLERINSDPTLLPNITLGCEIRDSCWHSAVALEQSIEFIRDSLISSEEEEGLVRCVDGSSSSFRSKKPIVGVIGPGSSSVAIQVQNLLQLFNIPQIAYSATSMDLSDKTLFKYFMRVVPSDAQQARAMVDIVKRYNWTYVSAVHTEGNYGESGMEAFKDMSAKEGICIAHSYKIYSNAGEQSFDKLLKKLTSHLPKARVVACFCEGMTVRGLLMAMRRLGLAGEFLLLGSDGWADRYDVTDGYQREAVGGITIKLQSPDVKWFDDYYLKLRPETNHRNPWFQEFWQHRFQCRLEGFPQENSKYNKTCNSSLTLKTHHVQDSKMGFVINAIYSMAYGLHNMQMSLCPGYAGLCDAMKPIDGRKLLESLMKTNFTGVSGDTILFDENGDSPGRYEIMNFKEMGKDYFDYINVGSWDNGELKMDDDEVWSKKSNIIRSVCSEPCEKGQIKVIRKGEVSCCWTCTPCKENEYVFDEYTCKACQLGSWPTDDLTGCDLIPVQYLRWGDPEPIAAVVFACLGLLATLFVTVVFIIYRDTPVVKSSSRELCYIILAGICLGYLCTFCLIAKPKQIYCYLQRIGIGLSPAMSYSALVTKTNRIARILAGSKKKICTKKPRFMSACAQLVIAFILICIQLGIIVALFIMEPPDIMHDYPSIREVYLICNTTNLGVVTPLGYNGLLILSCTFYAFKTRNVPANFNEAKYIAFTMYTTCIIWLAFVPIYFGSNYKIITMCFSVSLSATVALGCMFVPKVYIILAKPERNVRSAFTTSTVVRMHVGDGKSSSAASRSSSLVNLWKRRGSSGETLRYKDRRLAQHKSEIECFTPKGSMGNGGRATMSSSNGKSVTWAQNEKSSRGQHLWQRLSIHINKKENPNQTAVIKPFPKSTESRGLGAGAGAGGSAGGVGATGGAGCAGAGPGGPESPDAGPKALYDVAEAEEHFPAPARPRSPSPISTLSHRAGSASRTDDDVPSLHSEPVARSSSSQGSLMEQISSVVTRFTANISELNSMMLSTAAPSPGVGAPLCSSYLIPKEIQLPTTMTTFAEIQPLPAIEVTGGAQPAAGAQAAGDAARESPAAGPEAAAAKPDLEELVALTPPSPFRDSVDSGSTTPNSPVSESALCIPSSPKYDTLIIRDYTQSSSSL
# test_name: Displacement of [3H]M-MPEP from mGluR5 (unknown origin) at 1 uM measured after 60 mins relative to control
reported_endpoint: inhibition (%)
Answers are plain numbers, in %.

Example entries and their recorded answers appear below.
{"compound_string": "N#Cc1cccc(S(=O)(=O)c2cnc3ccc(Cl)cc3c2N2CCOCC2)c1", "inhibition, %": 20}
{"compound_string": "O=S(=O)(c1ccccc1)c1cnc2ccccc2c1Nc1ccccc1", "inhibition, %": 3.6}
{"compound_string": "Cc1ccc(S(=O)(=O)c2cnc3ccc(F)cc3c2N2CCC(C)CC2)cc1", "inhibition, %": 91}
{"compound_string": "O=S(=O)(c1ccc(F)c(F)c1)c1cnc2c(F)cccc2c1N1CCOCC1", "inhibition, %": 57}

Then there is this compound:
**Query** Given the entry Cc1cc(C)cc(S(=O)(=O)c2cnc3ccc(F)cc3c2N2CCOCC2)c1 , report its measured inhibition.
**Result** 43

* * *

# target_under_test: Metabotropic glutamate receptor 5 (Homo sapiens)
# test_name: Displacement of [3H]M-MPEP from mGluR5 (unknown origin) at 1 uM measured after 60 mins relative to control
reported_endpoint: inhibition

Example entries and their recorded answers appear below.
{"compound_string": "COc1cccc(S(=O)(=O)c2cnc3cc(F)ccc3c2N2CCC(C)CC2)c1", "value_measured": "90%"}
{"compound_string": "Cc1ccc(S(=O)(=O)c2cnc3ccc(F)cc3c2N2CCC(C)CC2)cc1C", "value_measured": "92%"}
{"compound_string": "CC1CCN(c2c(S(=O)(=O)c3cccc(F)c3)cnc3cc(Cl)ccc23)CC1", "value_measured": "5.6 to 96%"}

// each compound listed below needs its inhibition
1. Cc1ccc(S(=O)(=O)c2cnc3cc(F)ccc3c2N2CCC(C)CC2)cc1
2. CC1CCN(c2c(S(=O)(=O)c3cc(F)cc(F)c3)cnc3cc(F)ccc23)CC1

**Result**
["88%", "77 to 77.2%"]
